# assay-system: T1, CD27 expressed on the cell surface (HT1080_CD27 cells) (human, UniProt P26842 20-260); note: test concentration or dose not given here
# T1 sequence (looked up): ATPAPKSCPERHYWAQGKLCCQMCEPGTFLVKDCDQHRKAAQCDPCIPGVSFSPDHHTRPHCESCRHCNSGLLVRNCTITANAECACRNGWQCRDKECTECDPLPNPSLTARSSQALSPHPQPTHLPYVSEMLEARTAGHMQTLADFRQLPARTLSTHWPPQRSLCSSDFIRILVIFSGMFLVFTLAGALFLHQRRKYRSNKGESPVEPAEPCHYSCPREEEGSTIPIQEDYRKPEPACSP
# method: cell-based or functional assay
measure-name: IL-8 [abs. corr.] (abs. corr.)
The figure you give is taken to be in abs. corr.; do not add the unit.

Recorded IL-8 [abs. corr.] for P018.S.04.A.E02 (antibody, V domains shown, V regions on human Ig constant parts; also called AB27_74) VH: QSVEESGGRLVTPGTPLTLTCTVSGFSLNNYDMNWVRQAPGKGLEWVGYIDTGGSAYYASWVNGRFTISKTSTTVELKMTSLTASDTATYFCARGYTHGYLWGQGTLVTVSS VL: ALVMTQTPSSVSAAVGGTVTINCQASQNVYNNLAWYQQKPGQPPKLLIDSASTLASGVSSRFKGSGSGTEFTLTISDLESADAATYYCQSADWESSNFFWAFGGGTEVVVK , please?
0.676

Recorded IL-8 [abs. corr.] for P018.S.04.A.E04 (antibody, V domains shown, V regions on human Ig constant parts; also called AB27_75) VH: QSVEESGGRLVTPGTPLTLTCTVSGFSLSTYAMNWIRQAPGKGLEWIGTITTGGSTFFASWAKGRFTISKTSTTVDLKITSPTTEDTATYFCARGGDTGYGFSYFDLWGQGTLVTVSS VL: AVVLTQTPASVSEPVGGTVTIKCQASENIYSSLAWYQQKPGQPPKLLIYDASTLASGVPSRFKGSGSGTEYTLTISGVQSDDAATYYCQQGYSTSNLVNPFGGGTELVVN , please?
0.641

Recorded IL-8 [abs. corr.] for P018.S.04.A.G04 (antibody, V domains shown, V regions on human Ig constant parts; also called AB27_78) VH: QSLEESGGRLVTPGTPLTLTCTASGFTISSHHVTWVRQAPGEGLEWIGVIYPSGTTYYASWAKGRFTISRTSTTVDLKMTSLTIEDTATYFCVRDVGYFTLWGQGTLVTVSS VL: AQVLTQTPSPVSAAVGGTVTISCQSSQSVGGNNWLAWYQQKLGQPPKLLIYYASTLASGVPPRFSGSGSGTQFTLTISEVQSDDSATYYCQGYYSDVTNAFGGGTEVVVK , please?
0.451

Recorded IL-8 [abs. corr.] for P018.S.03.A.C05 (antibody, V domains shown, V regions on human Ig constant parts; also called AB27_46) VH: QSLEESGGGLVQPGGTLTLTCKASGIDFSSSFYMCWVRQAPGKGLERIACTYNRDGSTYYASWAKGRFTISKTSSTTVTLQMASLTVADTATYFCARDDGYPGSGYVFNLWGPGTLVTVSS VL: DVVMTQTPASVEAAVGGTVTIKCQASQSVSSYLSWYQQKPGQRPKLLIYGASNLESGVPSRFKGSGSGTEFTLTISGVQSDDAATYYCQGGYYSSGADNNSFGGGTELVVK , please?
0.544

Recorded IL-8 [abs. corr.] for P018.S.09.A.C03 (antibody, V domains shown, V regions on human Ig constant parts; also called AB27_148) VH: QSVEESGGRLVTPGTPLTLTCTVSGFSLSSYGMIWVRQAPGKGLEWIGWISSNDNKYYARWAKGRFTISKTSTTVDLKMTSLTTEDTATYFCVRNGVYNTGNYFDLWGQGTLVTVSS VL: AQVLTQTPSSVSAAVGGTVTINCQASQSLYNNKNLAWYQQKPGQPPKFLIYTASSLASGVSSRFKGSGSGTQFTLTISDVQSDDAATYYCQGEFDCDSDDCFAFGGGTEVVVK , please?
0.464
